From: patent US20020169175A1

Entries annotated with measured melting point
Structures can show the parent of a compound that is named as a salt.

Example entries and their recorded answers appear below.
Compound | Assay readout | Endpoint result
CCCc1nn(C)c2c(=O)n(CCOc3ccc(C[C@H](OCC)C(=O)O)cc3)c(CC)nc12 (as salt: salt) [Example 39] | melting point | 130 °C
CCO[C@@H](Cc1ccc(OCCn2c(CC)nc3ccccc3c2=O)cc1)C(=O)[O-].[Li+] (stereo in doubt) | melting point | 245 to 247 °C
CCO[C@@H](Cc1ccc(OCCn2c(CC)nc3ccccc3c2=O)cc1)C(=O)O (as salt: salt) [Example 7] | melting point | 114 to 116 °C

Which melting point value belongs to CCO[C@@H](Cc1ccc(OCCn2c(CC)nc3ccccc3c2=O)cc1)C(=O)O (as salt: salt) [Example 10] ?
> 250 °C

Would you kindly share the measured melting point for CCO[C@@H](Cc1ccc(OCCn2c(CC)nc3ccccc3c2=O)cc1)C(=O)O (as salt: salt) [Example 4] ?
152 to 155 °C

Please report the recorded melting point for CCCc1nn(C)c2c(=O)n(CCOc3ccc(C[C@H](OCC)C(=O)O)cc3)c(CC)nc12 (as salt: salt) [Example 44] .
118 °C

Recorded melting point of CCCc1nn(C)c2c(=O)n(CCOc3ccc(C[C@H](OCC)C(=O)[O-])cc3)c(CC)nc12.[K+] (stereo in doubt) , please.
164 °C

What measured melting point goes with CCCc1nn(C)c2c(=O)n(CCOc3ccc(C[C@H](OCC)C(=O)O)cc3)c(CC)nc12 (as salt: tromethamine) [Example 40] ?
116 to 118 °C

---

Measured Tmax, listed per entry for reference.
Procedure details: Single dose oral pharmacokinetic studies in male Wistar rats
Assay type: in vivo, rat
Condition info: fasted, suspension in 0.25% sodium CMC
Use min as the unit, but write only the number.

The following compounds have reported results that may help.
Compound | Tmax (min)
CCCc1nn(C)c2c(=O)n(CCOc3ccc(CC(OCC)C(=O)[O-])cc3)c(CC)nc12.CCCc1nn(C)c2c(=O)n(CCOc3ccc(CC(OCC)C(=O)[O-])cc3)c(CC)nc12.[Mg+2] (single isomer, unassigned; (-)) [Example 31] | 165
CCCc1nn(C)c2c(=O)n(CCOc3ccc(C[C@H](OCC)C(=O)O)cc3)c(CC)nc12 [Example 45] | 143
CCCc1nn(C)c2c(=O)n(CCOc3ccc(C[C@H](OCC)C(=O)O)cc3)c(CC)nc12 [Example 40] | 45
CCO[C@@H](Cc1ccc(OCCn2c(CC)nc3ccccc3c2=O)cc1)C(=O)O [Example 7] | 54

Kindly review the next compound as well.
Field request: Tmax | item: CCO[C@@H](Cc1ccc(OCCn2c(CC)nc3ccccc3c2=O)cc1)C(=O)O [Example 10]
30

---

Procedure details: Single dose oral pharmacokinetic studies in male Wistar rats
Format: in vivo, rat
Condition info: male, Wistar, rat, plasma, po, 30 mg/kg, fasted, suspension in 0.25% sodium CMC, read-out: Cmax
Assay readout: Cmax (ng/mL)
Hi! Could you send only the number? It should be in ng/mL, unit omitted.

Structure | Readout unit | Cmax
CCCc1nn(C)c2c(=O)n(CCOc3ccc(C[C@H](OCC)C(=O)O)cc3)c(CC)nc12 | ng/mL | 34200

Entry CCO[C@@H](Cc1ccc(OCCn2c(CC)nc(-c3ccccc3)cc2=O)cc1)C(=O)[O-].[Na+] has what Cmax?
39500

Entry under review: CCO[C@@H](Cc1ccc(OCCn2c(CC)nc(-c3ccccc3)cc2=O)cc1)C(=O)[O-].[K+] . Reported Cmax?
17700

Endpoint output: Cmax of CCO[C@@H](Cc1ccc(OCCn2c(CC)nc(-c3ccccc3)cc2=O)cc1)C(=O)O . Value?
50400

Name the recorded Cmax for CCO[C@@H](Cc1ccc(OCCn2c(CC)nc3ccccc3c2=O)cc1)C(=O)O .
38700
